Ref: patent US20100261753A1

assayed-target: recombinant human GCase (rhGCase; Cerezyme) (Homo sapiens, UniProt P04062, R534H)
Construct: purchased Genzyme Corp
Sequence (P04062 40-536 R534H): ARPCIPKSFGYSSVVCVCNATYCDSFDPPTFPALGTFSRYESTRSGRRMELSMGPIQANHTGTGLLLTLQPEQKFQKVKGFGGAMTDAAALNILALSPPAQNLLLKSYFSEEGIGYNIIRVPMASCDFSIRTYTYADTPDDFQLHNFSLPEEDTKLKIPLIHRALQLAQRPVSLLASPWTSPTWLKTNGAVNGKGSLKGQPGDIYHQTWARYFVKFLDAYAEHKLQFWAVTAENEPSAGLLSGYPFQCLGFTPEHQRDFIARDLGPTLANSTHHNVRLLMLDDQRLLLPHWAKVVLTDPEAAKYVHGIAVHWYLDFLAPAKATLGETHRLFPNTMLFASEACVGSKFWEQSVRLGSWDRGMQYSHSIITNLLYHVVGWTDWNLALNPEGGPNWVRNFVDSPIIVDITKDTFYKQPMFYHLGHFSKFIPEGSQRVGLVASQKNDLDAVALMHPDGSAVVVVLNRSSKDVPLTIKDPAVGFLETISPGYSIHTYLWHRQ
experimental-details: In vitro enzyme inhibition assay of rhGCase with 4-MU-β-D-Glc substrate
Format: biochemical
protocol-conditions: pH 5.2; average of three independent experiments; Table 3A; read-out: IC50 pH 5.2
test-readout: IC50 (nM)
Note: unit nM is implicit; provide only the numeric part.

Record O[C@@H]1CNCC(CF)[C@H]1O (stereo in doubt) : what is its IC50 with recombinant human GCase (rhGCase; Cerezyme) (Homo sapiens, UniProt P04062, R534H)?
10

----------
experimental-details: Rat pharmacokinetics
Type: in vivo, Sprague-Dawley rats
protocol-conditions: male, Sprague-Dawley, plasma, PO, 10 mg/kg free base
test-readout: Cmax (ng/mL)
Please respond with the number in ng/mL and leave the unit unwritten.

Can you look up the measured Cmax of O[C@@H]1CNCC(CF)[C@H]1O (stereo in doubt) for me?
1290

----------
experimental-details: Compound concentration in brain, spleen and plasma samples of the GCase enhancement study
Assay type: in vivo, mice (C57BL/6)
protocol-conditions: male, C57BL/6, mouse, po; brain; 10 mg/kg p.o., nine doses, 24-hour washout; Table 3A
test-readout: concentration at 24 h (nM)
# value in nM; strip the unit string

Given the molecule O[C@@H]1CNCC(CF)[C@H]1O (stereo in doubt) [Compound A] , what is its reported concentration at 24 h?
124

----------
experimental-details: Compound concentration in brain, spleen and plasma samples of the GCase enhancement study
Format: in vivo, mice (C57BL/6)
protocol-conditions: male, C57BL/6, mouse, brain, po, 100 mg/kg; 100 mg/kg p.o., nine doses, 24-hour washout; Table 4A
Protocol: The ability of orally administered test compounds (the hydrochloride salt form of Compound A and Compound B) to elevate GCase levels as compared to reference compound, IFG-tartrate, was assessed in mice. […] Seven animals were used per dose. The dosing solutions were prepared in water. […] Plasma was collected by spinning blood at 2700 g for 10 minutes at 4° C. […] Fluorescence was measured on a plate reader for 1 sec/well using 355 nm excitation and 460 nm emission. […]
test-readout: concentration at 24 h (nM)
Quick note: give the figure in nM, leave out the unit.

# concentration at 24 h lookup, item OC[C@H]1CNC[C@@H](O)[C@@H]1O [IFG, reference compound]
287

----------
experimental-details: Rat pharmacokinetics
Type: in vivo, Sprague-Dawley rats
protocol-conditions: male, Sprague-Dawley, plasma, IV, 3 mg/kg free base
test-readout: clearance (mL/min/kg)
Supply the numeric figure in mL/min/kg, leaving out any unit text.

Item O[C@@H]1CNCC(CF)[C@H]1O (stereo in doubt) has what recorded clearance?
27.8

----------
experimental-details: Rat pharmacokinetics
Type: in vivo, Sprague-Dawley rats
protocol-conditions: male, Sprague-Dawley, plasma, PO, 10 mg/kg free base, read-out: t1/2 (converted)
test-readout: half-life (h)
Express the result in h but write the number alone.

Tell me the measured half-life of O[C@@H]1CNCC(CF)[C@H]1O (stereo in doubt) [Compound A] , please.
1.2

----------
assayed-target: lysosomal GCase (Homo sapiens, UniProt P04062)
Construct: lysosomal GCase activity was assayed in situ using fibroblasts established from a normal subject; endogenous in cells
Sequence (P04062 40-536): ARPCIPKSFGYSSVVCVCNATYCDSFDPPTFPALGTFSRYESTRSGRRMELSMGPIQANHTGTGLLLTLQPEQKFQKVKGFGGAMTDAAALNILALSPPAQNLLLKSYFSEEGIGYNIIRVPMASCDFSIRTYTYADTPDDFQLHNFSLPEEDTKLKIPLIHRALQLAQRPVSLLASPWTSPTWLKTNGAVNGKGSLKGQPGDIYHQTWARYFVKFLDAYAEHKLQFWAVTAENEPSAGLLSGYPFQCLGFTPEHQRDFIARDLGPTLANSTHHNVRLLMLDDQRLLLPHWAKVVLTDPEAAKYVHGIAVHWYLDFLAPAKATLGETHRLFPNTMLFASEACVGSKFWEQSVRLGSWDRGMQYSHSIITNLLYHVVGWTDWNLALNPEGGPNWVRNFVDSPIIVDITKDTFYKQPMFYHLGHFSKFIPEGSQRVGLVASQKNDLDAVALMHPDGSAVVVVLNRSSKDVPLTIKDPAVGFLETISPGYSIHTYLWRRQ
experimental-details: In situ lysosomal GCase inhibition and washout assay in fibroblasts from a normal subject
protocol-conditions: normal fibroblasts, 16-24 h incubation, PFBFDβGlu substrate
Where a name gives a salt, the structure may show the parent alone.
test-readout: IC50 (nM)
Your answer is read as nM, so omit the unit and give the number.

{"molecule": "O[C@@H]1CNCC(CF)[C@H]1O (stereo in doubt) [Compound A-HCl]", "assayed-target": "lysosomal GCase (Homo sapiens, UniProt P04062)", "value-unit": "nM", "IC50": 17}

Please find the next molecule below.
Entry O[C@@H]1[C@@H](CCl)CNC[C@H]1O : reported IC50 = ?
121
